// provenance: ChEMBL document CHEMBL3603809

experiment: Inhibition of baboon MAOB; parameters: species or system Papio
readout.label: Ki (nM)

# smiles.str, quantitative.result
measured = [
    ("Cn1c(=O)c2c(nc(/C=C/C=C/c3cccc(Br)c3)n2C)n(C)c1=O", 17),
]
